These data points were gathered from paper PMC8997399.

- experimentalTarget: TgIMPα (Toxoplasma gondii)
- Sequence (A0A125YID0 entry or part of it): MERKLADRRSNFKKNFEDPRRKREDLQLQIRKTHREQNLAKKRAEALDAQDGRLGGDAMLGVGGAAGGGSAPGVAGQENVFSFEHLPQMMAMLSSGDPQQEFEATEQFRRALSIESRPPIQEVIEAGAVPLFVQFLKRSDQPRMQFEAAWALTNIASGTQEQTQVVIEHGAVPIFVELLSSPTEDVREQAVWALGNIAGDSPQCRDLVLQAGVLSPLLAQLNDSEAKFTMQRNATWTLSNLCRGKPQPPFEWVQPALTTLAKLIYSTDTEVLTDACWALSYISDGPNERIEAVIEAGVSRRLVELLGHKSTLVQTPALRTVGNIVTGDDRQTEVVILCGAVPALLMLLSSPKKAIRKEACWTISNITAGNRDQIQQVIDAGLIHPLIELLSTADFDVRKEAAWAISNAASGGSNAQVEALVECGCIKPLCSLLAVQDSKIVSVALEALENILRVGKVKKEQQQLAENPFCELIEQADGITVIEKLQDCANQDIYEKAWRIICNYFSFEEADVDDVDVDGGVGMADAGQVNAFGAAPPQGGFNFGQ
- procedureSummary: biochemical
- Type: binding
measuredProperty: pIC50
Numbers only, as −log10 of the molar value.

Exam item: Entry under review: O=C(/C=C/c1ccc(O)c(O)c1)OCCc1ccccc1 [CAPE, Caffeic acid phenethyl ester] . Reported pIC50?
Marked response: 5.54

---

- experimentalTarget: T. gondii RH strain expressing the luciferase reporter (RH-Fluc)
- procedureSummary: T. gondii tachyzoite growth inhibition assay (RH-Fluc luciferase)
- Format: cell-based, Toxoplasma gondii
- runParameters: parasites in culture, 48 h; pooled, mean ± SD (n = 3) (Table 3); read-out: IC50 T. gondii
measuredProperty: IC50 (µM)
Answers are plain numbers, in µM.

CC(C)(C)c1ccc(S(=O)(=O)/C=C/C#N)cc1 = 2.7

Proceed to the following item.
Exam item: What measured IC50 is associated with CC(=O)OC[C@H]1O[C@@H]([S-])[C@H](OC(C)=O)[C@@H](OC(C)=O)[C@@H]1OC(C)=O.CCP(CC)CC.[Au+] on T. gondii RH strain expressing the luciferase reporter (RH-Fluc)?
Marked response: 2.3
